# procedure text: chemical genetic growth profiling, strain panel (AID 1159580);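 further: tested at 20 µM; growth read once vehicle control cultures reached saturation at 30 °C; 1 = growth at the plate median or of vehicle wells; lower values mean less growth of the strain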
# experimental context: S. cerevisiae deletion strains, growth OD, locus YKL160W, strain elf1, active compounds read low
Screen size: about 5,500 compounds; about 2,000 (36%) were called active. Roughly 18% stayed inconclusive and do not appear here. Some of the results follow.
measured attribute: normalized growth
Number only, no unit.

INPUT: Look at this molecule and give its reported normalized growth. CC(=O)O[C@@H]1C[C@@]2(C)C(CC[C@@H]2C(C)=O)C2CCC3=CC(=O)CC[C@]3(C)C21 (stereo partly specified)
OUTPUT: 0.965

---
INPUT: Look at this molecule and give its reported normalized growth. `CN1CCC(=C2c3ccccc3Sc3ccccc32)CC1`
OUTPUT: 1

INPUT: // next record CC(Oc1ccccc1)C(=O)N[C@@H]1C(=O)N2[C@@H]1SC(C)(C)[C@@H]2C(=O)O (stereo partly specified)
OUTPUT: 0.985

INPUT: // next record `COc1cc(O)c(C(=O)/C=C/c2ccccc2)c(OC)c1`
OUTPUT: 0.852

INPUT: // next record `CN1CCC(=C2c3ccccc3CCc3sccc32)CC1`
OUTPUT: 0.935

INPUT: // next record `CN1CCC(=C2c3ccccc3CC(=O)c3sccc32)CC1`
OUTPUT: 0.987

INPUT: // next record O=C(O)C1(O)C[C@@H](O)C(O)[C@H](O)C1 (stereo partly specified)
OUTPUT: 0.978

INPUT: // next record `O=C(O)c1cc2ccccc2[nH]1`
OUTPUT: 0.972

INPUT: // next record `Cc1[nH]c(C)c(Cl)c(=O)c1Cl`
OUTPUT: 1

INPUT: // next record C[C@]12CCC(=O)C=C1CCC1C2CC[C@@]2(C)C1CC[C@@H]2O (stereo partly specified)
OUTPUT: 0.994

INPUT: // next record NC(=O)C(c1ccccc1)(c1ccccc1)C1CCN(CCc2ccc3c(c2)CCO3)C1 (stereo unspecified)
OUTPUT: 1.02

====

# procedure text: chemical genetic growth profiling, strain panel (AID 1159580)
# experimental context: S. cerevisiae deletion strains, growth OD, locus YNL233W, strain BNI4, active compounds read low
Hit rate of the full screen: of about 5,500 compounds, about 2,000 (36%) were called active. Not shown: some 18% with an inconclusive outcome. This is one part of the list.
measured attribute: normalized growth
Number only, no unit.

// solved cases for normalized growth follow
INPUT: Look at this molecule and give its reported normalized growth. `O=C(CC[N+](=O)[O-])OC[C@H]1O[C@@H](O)[C@H](OC(=O)CC[N+](=O)[O-])[C@@H](OC(=O)CC[N+](=O)[O-])[C@@H]1OC(=O)CC[N+](=O)[O-]`
OUTPUT: 1.08

INPUT: // next record `CC[C@H]1OC(=O)[C@H](C)[C@@H](O[C@H]2C[C@@](C)(OC)[C@@H](O)[C@H](C)O2)[C@H](C)[C@@H](O[C@@H]2O[C@H](C)C[C@H](N(C)C)[C@H]2O)[C@](C)(O)C[C@@H](C)CN(C)[C@H](C)[C@@H](O)[C@]1(C)O`
OUTPUT: 1.01

INPUT: // next record CC1(C)C(C=C(Cl)Cl)C1C(=O)OC(C#N)c1cccc(Oc2ccccc2)c1 (centres undefined)
OUTPUT: 1.01

INPUT: // next record `CCN(CC)CCNC(=O)c1cc(Br)c(N)cc1OC`
OUTPUT: 0.957

INPUT: // next record OCCN1C[C@@H](O)[C@@H](O)C(O)C1CO (some centres undefined)
OUTPUT: 1.02

INPUT: // next record COc1ccc(OC)c(C(O)C(C)N)c1 (centres undefined)
OUTPUT: 1.02

INPUT: // next record `CCOC(=O)CCC(=O)O[C@H]1[C@H](O[C@@H]2[C@@H](C)[C@H](O[C@H]3C[C@@](C)(OC)[C@@H](O)[C@H](C)O3)[C@@H](C)C(=O)O[C@H](CC)[C@@](C)(O)[C@H](O)[C@@H](C)C(=O)[C@H](C)C[C@@]2(C)O)O[C@H](C)C[C@@H]1N(C)C`
OUTPUT: 0.988

INPUT: // next record `COc1ccc2cc([C@H](C)CO)ccc2c1`
OUTPUT: 1.01

---
INPUT: Look at this molecule and give its reported normalized growth. `COc1ccc2cc([C@H](C)C(=O)O)ccc2c1`
OUTPUT: 1.02

====

# procedure text: chemical genetic growth profiling, strain panel (AID 1159580)
# experimental context: S. cerevisiae deletion strains, growth OD, locus YER015W, strain faa2
Hit rate of the full screen: of about 5,500 compounds, about 2,000 (36%) were called active. Roughly 18% stayed inconclusive and do not appear here. Cut-off read from the data, not from the text of the source: active = normalized growth mostly below about 0.91 (no sharp cut-off); inconclusive = no clear call, values can overlap the other calls; inactive = mostly above about 0.92. Some of the results follow.
Return exactly one item of active, inactive

Examples with answers:
INPUT: Given C=C1C2CC[C@H]3[C@]4(C)C[C@H](OC5OC(CO)C(OS(=O)(=O)O)C(OS(=O)(=O)O)C5OC(=O)CC(C)C)C[C@@H](C(=O)O)[C@H]4CC[C@]3(C2)[C@H]1O (some centres not stated) , state the outcome it received in this test.
OUTPUT: inactive

INPUT: // next record `CCN(CC)CCNC(=O)c1cc(Br)c(N)cc1OC`
OUTPUT: inactive

---
INPUT: Given `CC1=C(/C=C/C(C)=C/C=C/C(C)=C/C=C/C=C(C)/C=C/C=C(C)/C=C/C2=C(C)C(=O)CCC2(C)C)C(C)(C)CCC1=O` , state the outcome it received in this test.
OUTPUT: inactive

INPUT: // next record CC(=O)NC1SCCC1=O (configuration not stated)
OUTPUT: inactive

INPUT: // next record CC1CC2C3CC(F)C4=CC(=O)C=CC4(C)C3(F)C(O)CC2(C)C1(O)C(=O)CO (configuration not stated)
OUTPUT: inactive

====

Measured normalized growth by item
# procedure text: chemical genetic growth profiling, strain panel (AID 1159580);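 further: tested at 20 µM; growth read once vehicle control cultures reached saturation at 30 °C; 1 = growth at the plate median or of vehicle wells; lower values mean less growth of the strain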
# experimental context: S. cerevisiae deletion strains, growth OD, locus YJR043C, strain POL32, active compounds read low
About 2,000 (36%) of roughly 5,500 compounds were called active. Another 18% or so got no clear call; they are omitted. The list shows a part of the results.
Number only, no unit.

// solved cases for normalized growth follow
INPUT: Look at this compound and give its reported normalized growth. `CC(=O)c1c(O)c(C)c(O)c2c1oc1c(C(C)=O)c(O)c(C)c(O)c12`
OUTPUT: 0.926

INPUT: // next record COc1cc(NC(C)CCCN)c2ncccc2c1 (stereo unspecified)
OUTPUT: 0.995

INPUT: // next record `COc1cc(NS(=O)(=O)c2ccc(N)cc2)nc(OC)n1`
OUTPUT: 0.982

INPUT: // next record `Cc1ccc(NC(=S)NNC(C)(C)C)cc1`
OUTPUT: 0.99

INPUT: // next record COc1cc2c(cc1OC)C1C(=O)c3c(OC)cc4c(c3OC1CO2)CCC(C)(C)O4 (stereo unspecified)
OUTPUT: 1

---
INPUT: Look at this compound and give its reported normalized growth. `Cc1c(O)c(C(=O)CC(C)C)c2oc3c(C(=O)CC(C)C)c(O)c(C)c(O)c3c2c1O`
OUTPUT: 0.958

INPUT: // next record CCN(CC)CCCC(C)Nc1ccnc2cc(Cl)ccc12 (stereo unspecified)
OUTPUT: 0.981

INPUT: // next record `CCOC(=O)c1cc(C)nc(Sc2ccccc2)c1C#N`
OUTPUT: 0.91

====

# procedure text: chemical genetic growth profiling, strain panel (AID 1159580);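 further: tested at 20 µM; growth read once vehicle control cultures reached saturation at 30 °C; 1 = growth at the plate median or of vehicle wells; lower values mean less growth of the strain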
# experimental context: S. cerevisiae deletion strains, growth OD, locus YNL071W, strain lat1, active compounds read low
The whole screen tested about 5,500 compounds, of which about 2,000 (36%) were called active. Roughly 18% stayed inconclusive and do not appear here. Some of the results follow.
measured attribute: normalized growth
Number only, no unit.

// solved cases for normalized growth follow
INPUT: Look at this molecule and give its reported normalized growth. `CC(=O)OC(C)(C)[C@@H]1Cc2cc3ccc(=O)oc3cc2O1`
OUTPUT: 0.985

INPUT: // next record ClC1=C(Cl)C2(Cl)C3C4C=CC(C4)C3C1(Cl)C2(Cl)Cl (centres undefined)
OUTPUT: 1.01

INPUT: // next record C[C@H]1CC2C([C@@H](O)C[C@@]3(C)C2CC[C@]3(O)C(=O)CO)[C@@]2(C)C=CC(=O)C=C12 (some centres undefined)
OUTPUT: 1

API: the following record is the query input.
INPUT: Look at this molecule and give its reported normalized growth. OCCN1C[C@@H](O)[C@@H](O)C(O)C1CO (some centres undefined)
OUTPUT: 0.993

====

# procedure text: chemical genetic growth profiling, strain panel (AID 1159580);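 further: tested at 20 µM; growth read once vehicle control cultures reached saturation at 30 °C; 1 = growth at the plate median or of vehicle wells; lower values mean less growth of the strain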
# experimental context: S. cerevisiae deletion strains, growth OD, locus YER167W, strain BCK2, active compounds read low
In all, about 5,500 compounds went through this assay and about 2,000 (36%) were called active. Not shown: some 18% with an inconclusive outcome. The list shows a part of the results.
Labelling: normalized growth reported below 1 becomes true (1); at or above becomes false (0).

Examples with answers:
INPUT: Given CCC(C)C(=O)O[C@H]1[C@H](O)C2C(CN3CC(C)CCC3[C@@]2(C)O)C2C[C@]34O[C@]5(O)C(OC(=O)C(C)(O)C(C)O)CC[C@@]3(C)C5C(OC(C)=O)[C@@H](OC(C)=O)C4[C@@]21O (stereo partly drawn) , is recorded normalized growth strictly lower than 1?
OUTPUT: false (0)

INPUT: // next record `CN(C)c1ccc(C(=C2C=CC(=[N+](C)C)C=C2)c2ccc(N(C)C)cc2)cc1`
OUTPUT: true (1)

INPUT: // next record CC(=O)OCC(=O)[C@H]1CCC2C3CCC4=CC(=O)CC[C@]4(C)C3CC[C@@]21C (stereo partly drawn)
OUTPUT: true (1)

INPUT: // next record `CN(C)C(=S)SSC(=S)N(C)C`
OUTPUT: true (1)

---
INPUT: Given `COc1ccc2c(c1)O[C@@H]1COc3cc(OC)c(OC)cc3[C@@H]1C2=O` , is recorded normalized growth strictly lower than 1?
OUTPUT: true (1)
